Measured fold change of Cadaverine concentration, listed per entry.
Test system: Klebsiella aerogenes DSM 30053
Test method notes: fold change of Cadaverine concentration vs plate DMSO controls (fold change (ratio)); higher = more amine produced, active = hit call of the paper (significant change in both replicates, either direction)
Run conditions: 20 µM; incubation time: 27 h, anaerobic, 37 °C
Write the number on its own, no unit after it.

>  <Compound>
COc1ccc(C(=CC(=O)N2CCOCC2)c2ccc(Cl)cc2)cc1OC (mixture of isomers)

>  <Target system>
Klebsiella aerogenes DSM 30053

>  <fold change of Cadaverine concentration>
1.06

$$$$

Answer with reported fold change of Cadaverine concentration of CC[C@@H](C(=O)[C@@H](C)[C@@H](O)[C@H](C)[C@@H]1O[C@@H]([C@@H](CC)C(=O)O)CC[C@@H]1C)[C@H]1O[C@]2(C=C[C@@H](O)[C@]3(CC[C@@](C)([C@H]4CC[C@](O)(CC)[C@H](C)O4)O3)O2)[C@H](C)C[C@@H]1C [Salinomycin sodium]
0.996

Answer with reported fold change of Cadaverine concentration of `Cc1cc(C(F)(C(F)(F)F)C(F)(F)F)ccc1NC(=O)c1cccc(I)c1C(=O)NC(C)(C)CS(C)(=O)=O`
0.987

Answer with reported fold change of Cadaverine concentration of COCc1cnc(C2=NC(C)(C(C)C)C(=O)N2)c(C(=O)O)c1 (centres undefined)
1.06
